Data origin: patent US20130115227A1

# experimental-system: T1, amyloid β (Aβ)-derived diffusible ligands (ADDLs) (UniProt P05067 672-713)
# T1 construct: domain: Aβ1-42; Soluble oligomers of Aβ1-42, with the number of chains per oligomer not fixed; They were prepared from HFIP film in DMSO/F12 and enriched on a 50 kDa filter; The result sentences say 'ADDLs'; also called ADDL oligomers; soluble …
# T1 sequence (P05067 672-713 limits assumed): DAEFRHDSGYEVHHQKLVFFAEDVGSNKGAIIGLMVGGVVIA
# protocol-summary: phage/Fab ELISA on ADDLs, anti-M13-HRP detection

- binder: "Fab clone 13.1 (phage-displayed) (Fab, V domains shown, VH is deduced from the parental VH being kept in the library) VH: EVQLVESGGGLVQPGGSLRLSCAASGFTFSSFGMHWVRQAPGKGLEWVAYISRGSSTIYYADTVKGRFTISRDNAKNSLYLQMNSLRAEDTAVYYCARGITTALDYWGQGTLVTVSS VL: DVVMTQSPLSLPVTPGEPASISCRSSQSIVHSNGNTYLEWYLQKPGQSPQLLIYKASNRFSGVPDRFSGSGSGTDFTLKISRVEAEDVGVYYCFQGSKAHPSFGQGTKLEIK"
  binding result: "binds"
- binder: "Fab clone 9.2 (phage-displayed) (Fab, V domains shown, VH is deduced from the parental VH being kept in the library) VH: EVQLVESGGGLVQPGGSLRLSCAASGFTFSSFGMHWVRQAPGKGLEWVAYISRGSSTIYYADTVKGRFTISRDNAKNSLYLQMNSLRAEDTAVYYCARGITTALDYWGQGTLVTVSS VL: DVVMTQSPLSLPVTPGEPASISCRSSQSIVHSNGNTYLEWYLQKPGQSPQLLIYKASNRFSGVPDRFSGSGSGTDFTLKISRVEAEDVGVYYCFQGSRAPPFFGQGTKLEIK"
  binding result: "binds"
- binder: "Fab clone 7.2 (phage-displayed) (Fab, V domains shown, VH is deduced from the parental VH being kept in the library) VH: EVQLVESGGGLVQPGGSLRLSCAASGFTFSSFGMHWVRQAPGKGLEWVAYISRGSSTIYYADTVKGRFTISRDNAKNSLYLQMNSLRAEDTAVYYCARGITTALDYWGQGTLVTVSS VL: DVVMTQSPLSLPVTPGEPASISCRSSQSIVHSNGNTYLEWYLQKPGQSPQLLIYKASNRFSGVPDRFSGSGSGTDFTLKISRVEAEDVGVYYCFQGSYAPPGFGQGTKLEIK"
  binding result: "binds"
